Readings of CC50 at 5 days for the listed compounds
- MEASUREMENT DESCRIPTION: Cytotoxicity in HepDE19 cells (CCK-8) and selectivity index
- Format: cell-based
- EXPERIMENTAL SETUP: human, HepDE19 cells; CCK-8 cell viability; five days after treatment

- COMPOUND: "CCOC(=O)C1=C(CN2CCN3C(=O)NC[C@@H]3C2)NC(c2nccs2)=N[C@H]1c1ccc(F)cc1Br"
  CC50 at 5 days: "23 µM"
- COMPOUND: "CCOC(=O)C1=C(CN2CCN3C(=O)N(CC(C)(C)O)C[C@@H]3C2)NC(c2nccs2)=N[C@H]1c1cccc(F)c1Cl (single isomer, unassigned) [Example 106B]"
  CC50 at 5 days: "65 µM"
- COMPOUND: "CCOC(=O)C1=C(CN2CCN3C(=O)N(CC(C)(C)C(=O)O)C[C@@H]3C2)NC(c2nccs2)=N[C@H]1c1cccc(F)c1Cl"
  CC50 at 5 days: "> 100 µM"
- COMPOUND: "COC(=O)C1=C(CN2CCN3C(=O)N(Cc4ccc(C(=O)O)cc4)CC3C2)NC(c2nccs2)=N[C@H]1c1ccc(F)cc1Cl (stereo partly drawn)"
  CC50 at 5 days: "> 100 µM"
- COMPOUND: "CCOC(=O)C1=C(CN2CCN3C(=O)N(CC(C)(C)C(=O)O)C[C@@H]3C2)NC(c2nccs2)=N[C@H]1c1cccc(F)c1C"
  CC50 at 5 days: "> 100 µM"
- COMPOUND: "COC(=O)C1=C(CN2CCN3C(=O)N(CC4(C(=O)O)CC4)C[C@@H]3C2)NC(c2nccs2)=N[C@H]1c1ccc(F)cc1Cl"
  CC50 at 5 days: "> 100 µM"

----------
- MEASUREMENT DESCRIPTION: Cytotoxicity in HepDE19 cells (CCK-8) and selectivity index
- Format: cell-based
- EXPERIMENTAL SETUP: human, HepDE19 cells; CCK-8 cell viability; five days after treatment
Readings of CC50 at 5 days for the listed molecules

- MOLECULE: "CCOC(=O)C1=C(CN2CCN3C(=O)N(Cc4ccc(C(=O)O)cc4)CC3C2)NC(c2nccs2)=N[C@H]1c1cccc(F)c1Cl (stereo partly drawn) [Example 66]"
  COMPARISON OPERATOR: "="
  CC50 at 5 days / µM: 60
- MOLECULE: "CCOC(=O)C1=C(CN2CCN3C(=O)N(CC(C)C)C[C@@H]3[C@H]2C(=O)O)NC(c2nccs2)=N[C@H]1c1cccc(F)c1Cl (single isomer, unassigned) [Example 101B]"
  COMPARISON OPERATOR: ">"
  CC50 at 5 days / µM: 100
- MOLECULE: "COC(=O)C1=C(CN2CCN3C(=O)N(C4CCC(C(=O)O)CC4)C[C@@H]3C2)NC(c2nccs2)=N[C@H]1c1ccc(F)cc1Cl (stereo partly drawn) [Example 73]"
  COMPARISON OPERATOR: "="
  CC50 at 5 days / µM: 70

----------
- Tested on: HBV
- MEASUREMENT DESCRIPTION: Anti-HBV activity in vitro, HepG2.2.15 cells, extracellular HBV DNA by qPCR
- Assay type: cell-based
- EXPERIMENTAL SETUP: HepG2.2.15 cells; HBV replication inhibited by 50%, extracellular HBV DNA by qPCR; five days after compound treatment; read-out: EC50

- COMPOUND: "COC(=O)C1=C(CN2CCN3C(=O)N(C4CCC(C(=O)O)C4)C[C@@H]3C2)NC(c2nccs2)=N[C@H]1c1ccc(F)cc1Cl (mixture of isomers) [Example 63]"
  EC50 / nM: 12
- COMPOUND: "CCOC(=O)C1=C(CN2CCN3C(=O)N(C4CCC(C(=O)O)C4)C[C@@H]3C2)NC(c2nccs2)=N[C@H]1c1cccc(F)c1Cl (mixture of isomers) [Example 64]"
  EC50 / nM: 8
- COMPOUND: "COC(=O)C1=C(CN2CCN3C(=O)N(C4CCC(C(=O)O)CC4)C[C@@H]3C2)NC(c2nccs2)=N[C@H]1c1ccc(F)cc1Cl (stereo partly drawn) [Example 73]"
  EC50 / nM: 9

----------
- Tested on: HepDE19 cells
- MEASUREMENT DESCRIPTION: Cytotoxicity in HepDE19 cells (CCK-8) and selectivity index
- Assay type: cell-based
- EXPERIMENTAL SETUP: CC50 (HepDE19) value / EC50 (HepG2.2.15) value
- Protocol: HepG2.2.15 and HepDE19 are stably-transfected cell lines containing the HBV genome. […] HepDE19 cells were seeded into 96-well plates (5×10^3 cells per well) and treated with compounds for EC50 determination. Five days after treatment, cell viability was measured by addition of 20 μL of CCK-8 reagent. Two hours after incubation at 37° C., the absorbance at wavelengths of 450 nm and 630 nm (OD450 and OD630) was recorded by a plate reader. […]
Readings of Selectivity index (CC50/EC50) for the listed compounds
MEASURED ENDPOINT: Selectivity index (CC50/EC50)

- COMPOUND: "CCOC(=O)C1=C(CN2CCN3C(=O)N(C4CCC(C(=O)O)C4)C[C@@H]3C2)NC(c2nccs2)=N[C@H]1c1cccc(F)c1Cl (mixture of isomers) [Example 62]"
  TARGET ENTITY: "HepDE19 cells"
  MEASURED ENDPOINT: "Selectivity index (CC50/EC50)"
  COMPARISON OPERATOR: ">"
  TEST RESULT: 16667
- COMPOUND: "CCOC(=O)C1=C(CN2CCN3C(=O)CC[C@@H]3[C@H]2C(=O)O)NC(c2nccs2)=N[C@H]1c1cccc(F)c1Cl (racemic) [Example 99]"
  TARGET ENTITY: "HepDE19 cells"
  MEASURED ENDPOINT: "Selectivity index (CC50/EC50)"
  COMPARISON OPERATOR: ">"
  TEST RESULT: 7142
- COMPOUND: "COC(=O)C1=C(CN2CCN3C(=O)N(C(C)(C)C)C[C@@H]3[C@H]2C(=O)O)NC(c2nccs2)=N[C@H]1c1ccc(F)c(F)c1C (single isomer, unassigned) [Example 88B]"
  TARGET ENTITY: "HepDE19 cells"
  MEASURED ENDPOINT: "Selectivity index (CC50/EC50)"
  COMPARISON OPERATOR: ">"
  TEST RESULT: 20000
- COMPOUND: "CCOC(=O)C1=C(CN2CCN3C(=O)N(CC(C)(C)O)C[C@@H]3C2)NC(c2nccs2)=N[C@H]1c1cccc(F)c1Cl (single isomer, unassigned) [Example 106B]"
  TARGET ENTITY: "HepDE19 cells"
  MEASURED ENDPOINT: "Selectivity index (CC50/EC50)"
  COMPARISON OPERATOR: "="
  TEST RESULT: 21666
- COMPOUND: "CCOC(=O)C1=C(CN2CCN3C(=O)N(Cc4ccc(C(=O)O)cc4)CC3C2)NC(c2nccs2)=N[C@H]1c1cccc(F)c1Cl (stereo partly drawn) [Example 66]"
  TARGET ENTITY: "HepDE19 cells"
  MEASURED ENDPOINT: "Selectivity index (CC50/EC50)"
  COMPARISON OPERATOR: "="
  TEST RESULT: 15000
- COMPOUND: "COC(=O)C1=C(CN2CCN3C(=O)NC[C@@H]3C2)NC(c2nccs2)=N[C@H]1c1ccc(F)cc1Cl [Example 11]"
  TARGET ENTITY: "HepDE19 cells"
  MEASURED ENDPOINT: "Selectivity index (CC50/EC50)"
  COMPARISON OPERATOR: "="
  TEST RESULT: 30635

----------
- MEASUREMENT DESCRIPTION: Cytotoxicity in HepDE19 cells (CCK-8) and selectivity index
- Type: cell-based
- EXPERIMENTAL SETUP: human, HepDE19 cells; CCK-8 cell viability; five days after treatment

- COMPOUND: "CCOC(=O)C1=C(CN2CCN3C(=O)OC[C@@H]3[C@H]2C(=O)O)NC(c2nccs2)=N[C@H]1c1cccc(F)c1Cl (single isomer, unassigned) [Example 102B]"
  COMPARISON OPERATOR: ">"
  CC50 at 5 days (µM): 100
- COMPOUND: "COC(=O)C1=C(CN2CCN3C(=O)N(CC4(C(=O)O)CCC4)C[C@@H]3C2)NC(c2nccs2)=N[C@H]1c1ccc(F)cc1Cl [Example 59]"
  COMPARISON OPERATOR: ">"
  CC50 at 5 days (µM): 100
- COMPOUND: "CCOC(=O)C1=C(CN2CCN3C(=O)N(C)C[C@H]3[C@@H]2C(=O)O)NC(c2nccs2)=N[C@H]1c1cccc(F)c1Cl (single isomer, unassigned) [Example 91B]"
  COMPARISON OPERATOR: ">"
  CC50 at 5 days (µM): 100
- COMPOUND: "COC(=O)C1=C(CN2CCN3C(=O)N(CC(C)(C)C(=O)O)C[C@@H]3C2)NC(c2nccs2)=N[C@H]1c1ccc(F)cc1Cl [Example 42]"
  COMPARISON OPERATOR: ">"
  CC50 at 5 days (µM): 100
- COMPOUND: "CCOC(=O)C1=C(CN2CCN3C(=O)N(CC4CC4)C[C@@H]3[C@H]2C(=O)O)NC(c2nccs2)=N[C@H]1c1cccc(F)c1Cl (single isomer, unassigned) [Example 97B]"
  COMPARISON OPERATOR: ">"
  CC50 at 5 days (µM): 100
- COMPOUND: "COC(=O)C1=C(CN2CCN3C(=O)N(C(C)(C)C)C[C@@H]3[C@H]2C(=O)O)NC(c2nccs2)=N[C@H]1c1ccc(F)c(F)c1C (single isomer, unassigned) [Example 88B]"
  COMPARISON OPERATOR: ">"
  CC50 at 5 days (µM): 100
- COMPOUND: "CCCOC(=O)C1=C(CN2CCN3C(=O)N(CC(C)(C)C(=O)O)C[C@@H]3C2)NC(c2nccs2)=N[C@H]1c1cccc(F)c1Cl [Example 93]"
  COMPARISON OPERATOR: "="
  CC50 at 5 days (µM): 86
- COMPOUND: "CCOC(=O)C1=C(CN2CCN3C(=O)NCC3(C(=O)OC)C2)NC(c2nccs2)=N[C@H]1c1cccc(F)c1Cl (stereo partly shown) [Example 24]"
  COMPARISON OPERATOR: "="
  CC50 at 5 days (µM): 53
- COMPOUND: "COC(=O)C1=C(CN2CCN3C(=O)NC[C@@H]3C2)NC(c2nccs2)=N[C@H]1c1ccc(F)cc1Cl [Example 11]"
  COMPARISON OPERATOR: "="
  CC50 at 5 days (µM): 52
- COMPOUND: "COC(=O)C1=C(CN2CCN3C(=O)OC[C@@H]3C2)NC(c2nccs2)=N[C@H]1c1ccc(F)cc1Cl [Example 4]"
  COMPARISON OPERATOR: "="
  CC50 at 5 days (µM): 79
- COMPOUND: "CCOC(=O)C1=C(CN2CCN3C(=O)N(CC(C)(C)C(=O)O)C[C@@H]3C2)NC(c2nc(C)cs2)=N[C@H]1c1cccc(F)c1Cl [Example 98]"
  COMPARISON OPERATOR: "="
  CC50 at 5 days (µM): 73
- COMPOUND: "CCOC(=O)C1=C(CN2CCN3C(=O)N(c4ccc(C(=O)O)cc4)C[C@@H]3C2)NC(c2nccs2)=N[C@H]1c1cccc(F)c1Cl [Example 26]"
  COMPARISON OPERATOR: "="
  CC50 at 5 days (µM): 28
- COMPOUND: "CCOC(=O)C1=C(CN2CCN3C(=O)N(C(C)(C)C)C[C@@H]3[C@H]2C(=O)O)NC(c2nccs2)=N[C@H]1c1cccc(F)c1Cl (single isomer, unassigned) [Example 87B]"
  COMPARISON OPERATOR: ">"
  CC50 at 5 days (µM): 100
